molecular target: T1, mouse PCSK9 (mouse, UniProt Q80W65 35-694, limits assumed); assay: SPR Biacore 3000, captured IgG, mPCSK9 injected, pH 7.4
T1 construct: also called mPCSK9; msPCK9
T1 sequence (Q80W65 35-694 limits assumed): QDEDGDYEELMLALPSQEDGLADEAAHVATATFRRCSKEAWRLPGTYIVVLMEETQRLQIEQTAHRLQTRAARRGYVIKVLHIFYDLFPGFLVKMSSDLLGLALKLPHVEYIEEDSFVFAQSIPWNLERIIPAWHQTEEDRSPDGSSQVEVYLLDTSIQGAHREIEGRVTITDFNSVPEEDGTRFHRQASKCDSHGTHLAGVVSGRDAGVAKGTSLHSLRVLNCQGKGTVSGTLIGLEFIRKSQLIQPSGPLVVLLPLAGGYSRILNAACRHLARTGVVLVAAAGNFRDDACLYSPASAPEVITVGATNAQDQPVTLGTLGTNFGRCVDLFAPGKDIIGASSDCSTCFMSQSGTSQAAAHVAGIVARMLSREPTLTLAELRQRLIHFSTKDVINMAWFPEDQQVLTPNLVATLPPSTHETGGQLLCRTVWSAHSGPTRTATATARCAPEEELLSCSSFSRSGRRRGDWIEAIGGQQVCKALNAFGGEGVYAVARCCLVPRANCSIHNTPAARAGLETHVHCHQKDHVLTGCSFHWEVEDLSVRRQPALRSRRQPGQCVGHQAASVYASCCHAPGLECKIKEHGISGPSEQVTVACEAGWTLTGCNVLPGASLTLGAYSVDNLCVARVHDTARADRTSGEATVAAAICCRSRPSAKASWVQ
ATTRIBUTE_MEASURED: kon (M⁻¹ s⁻¹)
Entry rule: numbers only, all in M⁻¹ s⁻¹.

Solved cases (2 shown):
[
  {
    "BINDER": "6L1721H23 (antibody, V domains shown, L1L3-based mutant; Full-length IgG) VH: QVQLVQSGAEVKKPGASVKVSCKASGYTFTSYYMHWVRQAPGQGLEWMGEIHPFGGRTNYNEKFKSRVTMTRDTSTSTVYMELSSLRSEDTAVYYCARERPLYASDLWGQGTTVTVSS VL: DIQMTQSPSSLSASVGDRVTITCRASQGIHSALAWYQQKPGKAPKLLIYHASYRYTGVPSRFSGSGSGTDFTFTISSLQPEDIATYYCQQRYSLWRTFGQGTKLEIK",
    "kon [M⁻¹ s⁻¹]": 64800
  },
  {
    "BINDER": "5L1724H23_6L3H3 (antibody, V domains shown, Only CDRs printed; Full-length IgG) VH: QVQLVQSGAEVKKPGASVKVSCKASGYTFTSYYMHWVRQAPGQGLEWMGEIHPSGGRTNYNEKFKSRVTMTRDTSTSTVYMELSSLRSEDTAVYYCARERPLYASDLWGQGTTVTVSS VL: DIQMTQSPSSLSASVGDRVTITCKASQDVHTAVAWYQQKPGKAPKLLIYSASHRYTGVPSRFSGSGSGTDFTFTISSLQPEDIATYYCQQRYSLWRTFGQGTKLEIK",
    "kon [M⁻¹ s⁻¹]": 63100
  }
]

Kindly consider the entry below.
Ask: Name the recorded kon for 5L1721H23 (antibody, V domains shown, Triple histidine mutant of h5A10; Only CDRs printed; Full-length IgG) VH: QVQLVQSGAEVKKPGASVKVSCKASGYTFTSYYMHWVRQAPGQGLEWMGEIHPSGGRTNYNEKFKSRVTMTRDTSTSTVYMELSSLRSEDTAVYYCARERPLYAMDYWGQGTTVTVSS VL: DIQMTQSPSSLSASVGDRVTITCKASQDVHTAVAWYQQKPGKAPKLLIYHASYRYTGVPSRFSGSGSGTDFTFTISSLQPEDIATYYCQQRYSTPRTFGQGTKLEIK .
Reply: 61200
